Tested on: Plasmodium falciparum NF54
Assay: growth inhibition relative to untreated control; higher = more inhibition
Details: 5 µM; minimal medium (MM); 72 h
Note to self: values exactly at 30% are met. So growth inhibition at or above 30% is met, below is not met.

For orientation, consider the following solved cases.
- O=C(NC1CCCCC1)N1CCN(Cc2ccc3c(c2)OCO3)CC1: not met
- CNC(=O)C1Cc2c([nH]c3cc(Cl)ccc23)C2(CCN(CCc3ccccc3)CC2)N1 (stereo not drawn): met
- O=C(NC1CC1)c1ccc(CSCc2ccccc2Cl)o1: met
- CC(=O)Nc1ccc(-c2noc(CC3CCCN(Cc4cccc(F)c4C)C3)n2)cc1 (stereo not drawn): met
- O=C(Nc1cccnc1)c1c(O)c2cccc3c2n(c1=O)CC3: not met
- CCNC(=O)C(C)Nc1nc(-c2cccnc2)nc2sc(C)c(C)c12 (stereo not drawn): met
- CCc1cc(=O)n(C)c(SC(C)C(=O)Nc2ccc(F)cc2)n1 (stereo not drawn): met
- Cc1nc2ccccn2c1C(=O)NCc1ccc(Cl)cc1: not met
- CC1(C)Cc2c(c(N3CCOCC3)nc3snc(Br)c23)CO1: not met
- COc1ccc(-c2cc(NC(=O)c3ccc(F)cc3Cl)ccc2OC)cc1: not met

Does "O=C(Nc1nc(-c2ccccn2)cs1)c1cncn1-c1ccccc1" have a reported growth inhibition of at least 30%?
not met

Does "CNc1snc(C)c1C(=O)NCCOc1ccc(OC)cc1" have a reported growth inhibition of at least 30%?
met

Does "c1ccc(Oc2ccc(-c3cc(CN4CCOCC4)[nH]n3)cc2)cc1" have a reported growth inhibition of at least 30%?
not met
